# PROCEDURE SUMMARY: Solubility of Compound (I) free base in solvents at 50° C.
# Format: physicochemical
# ASSAY CONDITIONS: organic solvent or mixture, t-BuOH:water (9:1 vol.), sample 83-2, read-out: Solubility (mg/mL) at 50° C.
ENDPOINT: solubility

Name the recorded solubility of the compound listed here: C[C@](N)(c1ccc(F)cc1)c1cnc(N2CCN(c3ncnn4cc(-c5cnn(CCO)c5)cc34)CC2)nc1 [Compound (I)]
< 2.6 mg/mL

###

# PROCEDURE SUMMARY: Phase 1 single and multiple ascending dose study (safety, tolerability, pharmacokinetics)
# Type: in vivo, human
# ASSAY CONDITIONS: human, plasma; oral, healthy adult subjects; given as monophosphate salt; read-out: mean half-life (t1/2)
ENDPOINT: half-life

Name the recorded half-life of the compound listed here: C[C@](N)(c1ccc(F)cc1)c1cnc(N2CCN(c3ncnn4cc(-c5cnn(CCO)c5)cc34)CC2)nc1
20 to 28 h

Where do these numbers come from? They come from patent US20240254130A1.
